FYI, the data here is from ChEMBL document CHEMBL3612066.

Tested on: Mycobacterium tuberculosis
Experiment: Antitubercular activity against Mycobacterium tuberculosis H37Ra after 7 days by microplate alamar blue assay
Assay type: functional
Conditions: 168 h
Give MIC for every item shown.

Could you share which MIC value was measured for `O=C(NCc1ccc(N2CCC(c3ccc(OC(F)(F)F)cc3)CC2)cc1)c1c(-c2ccccc2)nn2ccc(Cl)cc12` ?
> 16.5 µM

Could you share which MIC value was measured for `Cc1nn2ccc(-c3ccccc3)cc2c1C(=O)NCc1ccc(N2CCC(c3ccc(OC(F)(F)F)cc3)CC2)cc1` ?
> 17.1 µM

Could you share which MIC value was measured for `Cc1nn2ccc(C(C)(C)C)cc2c1C(=O)NCc1ccc(N2CCC(c3ccc(OC(F)(F)F)cc3)CC2)cc1` ?
> 17.7 µM

Could you share which MIC value was measured for `Cc1nn2cccc(C)c2c1C(=O)NCc1ccc(N2CCC(c3ccc(OC(F)(F)F)cc3)CC2)cc1` ?
> 19.1 µM
